Data credit: the supplement of paper PMC11061612

Reported combination Emax values are given for each entry in this list.
Tested on: NCI-H82 (Small Cell Lung Carcinoma)
Experiment: combination Emax (second highest fraction inhibited in the dose matrix, 72 h); higher = more inhibition; extreme values may be limits of the assay
Form: value (number only, do not type unit).

compound	measured target	property label	test value
O=C(c1cc(Cc2n[nH]c(=O)c3ccccc23)ccc1F)N1CCN(C(=O)C2CC2)CC1 [Olaparib] + COc1nnc2ccc(N3CCC(c4ccc(OCCN5CCN(C)C(=O)[C@H]5C)cc4)CC3)nn12 [AZD5153] (first compound max 10 µM, 7x7, partner max 1 µM)	NCI-H82 (Small Cell Lung Carcinoma)	combination Emax	0.535

As a next step, examine the compound that follows.
Measured combination Emax of C[C@@H]1COCCN1c1cc(C2([S@](C)(=N)=O)CC2)nc(-c2ccnc3[nH]ccc23)n1 [AZD6738] + C1CC(C1)(C(=O)[O-])C(=O)[O-].N.N.[Pt+2] [Carboplatin] (first compound max 10 µM, 7x7, partner max 10 µM) : 0.823

---

Tested on: Calu-3 (Lung Adenocarcinoma);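 further: after 72 h of two-drug dosing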
Assay: Bliss excess, mean over the matrix (fraction); higher = more synergy
Would you mind classing the entries by Bliss excess? Ranges: band A: < -0.03; band B: ≥ -0.03 and < -0.01; band C: ≥ -0.01

Before answering, review these 8 worked examples.
compound	answer label
CN(CCO)CC[C@H](CSc1ccccc1)Nc1ccc(S(=O)(=O)NC(=O)c2ccc(N3CCC([C@@H](O)c4ccccc4-c4ccc(Cl)cc4)CC3)cc2)cc1S(=O)(=O)C(F)(F)F [AZD4320] + C=CCn1c(=O)c2cnc(Nc3ccc(N4CCN(C)CC4)cc3)nc2n1-c1cccc(C(C)(C)O)n1 [AZD1775] (first compound max 1 µM, partner max 1 µM)	band C
COc1cccc(OCCCN)c1-c1cc(Nc2cnc(C#N)cn2)n[nH]1 [Prexasertib] + O=C(c1cc(Cc2n[nH]c(=O)c3ccccc23)ccc1F)N1CCN(C(=O)C2CC2)CC1 [Olaparib] (first compound max 1 µM, 7x7, partner max 10 µM)	band A
N#Cc1cnc(Nc2cc(NC[C@H]3CNCCO3)c(C(F)(F)F)cn2)cn1 [SRA737] + O=c1[nH]cc(F)c(=O)[nH]1 [5-Fluorouracil] (first compound max 10 µM, 7x7, partner max 20 µM)	band B
CC1(C)CCC(CN2CCN(c3ccc(C(=O)NS(=O)(=O)c4ccc(NCC5CCOCC5)c([N+](=O)[O-])c4)c(Oc4cnc5[nH]ccc5c4)c3)CC2)=C(c2ccc(Cl)cc2)C1 [Venetoclax] + Cc1cc2ncnn2cc1Nc1ncc2c(n1)n(C1CCOCC1)c(=O)n2C [AZD7648] (first compound max 1 µM, 7x7, partner max 10 µM)	band C
CCN(CCO)CCCOc1ccc2c(Nc3cc(CC(=O)Nc4cccc(F)c4)[nH]n3)ncnc2c1 [AZD2811] + C[C@@H]1COCCN1C2=NC(=NC(=C2)C3(CC3)[S@](=N)(=O)C)C4=C5C=CNC5=NC=C4 [AZD6738] (first compound max 1 µM, 7x7, partner max 10 µM)	band B
COc1cc2ncnc(Nc3ccc(F)c(Cl)c3)c2cc1OCCCN1CCOCC1 [Gefitinib] + CC(C)n1c(=O)n(C)c2cnc3cc(F)c(-c4ccc(OCCCN5CCCCC5)nc4)cc3c21 [AZD1390] (first compound max 10 µM, 7x7, partner max 0.3 µM)	band A
Cc1c2c(nn1C)CSCc1cc(n(C)n1)CSc1cc(c3ccccc3c1)OCCCc1c(C(=O)O)n(C)c3c-2c(Cl)ccc13 [AZD5991] + CC(=O)O[C@H]1C(=O)[C@@]2(C)[C@H]([C@H](OC(=O)c3ccccc3)[C@]3(O)C[C@H](OC(=O)[C@H](O)[C@@H](NC(=O)c4ccccc4)c4ccccc4)C(C)=C1C3(C)C)[C@]1(OC(C)=O)CO[C@@H]1C[C@@H]2O [Paclitaxel] (first compound max 1 µM, 7x7, partner max 3 µM)	band C
CC1(C)CCC(CN2CCN(c3ccc(C(=O)NS(=O)(=O)c4ccc(NCC5CCOCC5)c([N+](=O)[O-])c4)c(Oc4cnc5[nH]ccc5c4)c3)CC2)=C(c2ccc(Cl)cc2)C1 [Venetoclax] + CS(=O)(=O)CCNCc1ccc(-c2ccc3ncnc(Nc4ccc(OCc5cccc(F)c5)c(Cl)c4)c3c2)o1 [Lapatinib] (first compound max 1 µM, 7x7, partner max 10 µM)	band A

Form field 'band' for CC1(C)CCC(CN2CCN(c3ccc(C(=O)NS(=O)(=O)c4ccc(NCC5CCOCC5)c([N+](=O)[O-])c4)c(Oc4cnc5[nH]ccc5c4)c3)CC2)=C(c2ccc(Cl)cc2)C1 [Venetoclax] + COc1cc(Nc2ncc3c(n2)-c2ccc(Cl)cc2C(c2c(F)cccc2OC)=NC3)ccc1C(=O)O [Alisertib] (first compound max 1 µM, 7x7, partner max 10 µM)
band B

Form field 'band' for C[C@@H](Oc1cc(-c2cnn(C3CCNCC3)c2)cnc1N)c1c(Cl)ccc(F)c1Cl [Crizotinib] + CC1=C(C(=CC=C1)Cl)NC(=O)C2=CN=C(S2)NC3=CC(=NC(=N3)C)N4CCN(CC4)CCO [Dasatinib] (first compound max 10 µM, 7x7, partner max 2 µM)
band B

Form field 'band' for N#Cc1cnc(Nc2cc(NC[C@H]3CNCCO3)c(C(F)(F)F)cn2)cn1 [SRA737] + Nc1ccn([C@@H]2O[C@H](CO)[C@@H](O)C2(F)F)c(=O)n1 [Gemcitabine] (first compound max 10 µM, 7x7, partner max 0.3 µM)
band C
